# Protocol Details: inhibition of 3D7 malaria parasite growth – strain 3D7 (AID 2306);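 note: 0% = DMSO wells and 100% = chloroquine plus artemisinin control wells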
# Condition Summary: P. falciparum 3D7 erythrocytic growth, LDH absorbance, 72 h; at 2 µM; stronger effect = higher value
Measured growth inhibition, listed per entry.
Field: numeric (%). Do not append units.

Compound	growth inhibition, %
CC(C)C[C@H](NC(=O)c1cc(-c2ccc(F)cc2)no1)C(=O)O (tested in a mixture with another compound)	82

Here is another compound to look at.
[in] Request the reported growth inhibition associated with Clc1ccc2c(NN=Cc3cccs3)ccnc2c1
[out] 100

###

# Protocol Details: antimalarial activity against Dd2 strain (AID 2302);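 note: 0% = DMSO untreated growth and 100% = chloroquine plus artemisinin killed control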
# Condition Summary: P. falciparum Dd2 in RBCs, LDH growth readout, 72 h; at 2 µM
The source made the active and inactive calls.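 The calls were made as follows: active = growth inhibition above 50% at the single 2 µM test dose, taken to imply half-maximal potency below 2 µM; inactive = the rest.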
In this exercise, the only acceptable responses are y for active, n for inactive

Known results for molecules:
Molecule	Class Label
COc1ccc(-c2ccc(NC(=O)c3ccc(C#N)cc3)cc2)cc1CN1CCN(C)CC1	n
CCCCN(CCCC)Cc1cc2ccccc2cc1O	y
CCCN(Cc1ccc(OCC)cc1)Cc1cc(=O)c2cc(Cl)ccc2[nH]1	y
CN(C)CCNCc1ncsc1-c1ccc2c(Nc3ccc(F)cc3Cl)ccnc2c1	y
Cc1c(C)n(C2CCCCC2)c2ncnc(OC3CCN(CC(=O)NC4CC4)CC3)c12	y
O=c1ccccn1CCCC1CCCCN1 (stereo not given)	n
CCC(C)NC(=O)Nc1ccc(-c2cccc(-c3nc4ccc(C(F)(F)F)cc4[nH]3)c2)cc1 (stereo not given)	n
CCCN(CCC)CCCN(CCCN(CCC)CCC)c1cc(C)nc(Nc2ccc(Cl)cc2)n1	y
CCCCCOc1ccc(C=NNc2nc(-c3ccccc3)cc(=O)[nH]2)cc1	y
Nc1nc(N)c2c(ccc3c2ccn3CC2CC2)n1	n

[in] Give the logged outcome of this assay for the following molecule: CCCCCCN1CCCN(Cc2ccc(C(=O)Nc3ccc(F)c(F)c3)cc2)CC1
[out] n

[in] Please let me know the test result on file for C=CCN(C(=O)c1ccc(Cl)c([N+](=O)[O-])c1)c1nc(-c2ccccc2)cs1 .
[out] y

[in] Returns: the outcome recorded for COc1ccc(CNCc2ccc(F)cc2)cc1-c1cccc(S(=O)(=O)NCCN2CCCC2)c1 in this assay.
[out] y

[in] Recorded test outcome, item CCCCCCn1c(Sc2ccc(C#N)c([N+](=O)[O-])c2)nnc1-c1ccc(Cl)cc1
[out] n

[in] What classification did COc1ccc2nccc(N3CCC(NCCNS(=O)(=O)c4ccc5c(c4)NC(=O)CS5)C3)c2n1 (stereo not given) end up with in this test?
[out] n

[in] Given N#Cc1cccc(CN2CCCN(Cc3ccc(C(=O)Nc4ccc(Cl)cc4)cc3)CC2)c1 , state the outcome it received in this test.
[out] n

[in] Assay outcome for O=C1c2ccc([N+](=O)[O-])cc2C(=O)N1c1ccc2[nH]ncc2c1 : what was it?
[out] n

[in] Assay result, entry O=C(/C=C/c1cccc(Br)c1)NCCCCCN1CCC(c2c[nH]c3ccccc23)CC1 — outcome?
[out] n

[in] Hi team, can someone confirm the assay call for Cc1nc2ccc(F)cc2n1C1CCN(C(=O)Cc2ccc(F)c(F)c2)CC1 ?
[out] y

[in] What did the test return for O=C(/C=C/c1ccc(Cl)c(Cl)c1)NCCCCCN1CCC(NC(=O)c2ccc(F)cc2)CC1 ?
[out] n

[in] Identify the outcome logged in this assay for the molecule shown: Cc1cccc2[nH]c(-c3cccc(-c4ccc(NC(=O)C5CCCO5)cc4)c3)nc12 (stereo not given)
[out] n

###

# Target Entity: Protein kinase 7 (PK7), Plasmodium falciparum 3D7 (PF3D7_0213400)
# Protocol Details: inhibition of Plasmodium PK7 catalytic activity – biochemical, TCAMS antimalarial set, Kinase-Glo luminescence (AID 1159587)
# Condition Summary: recombinant PfPK7, Kinase-Glo ATP depletion luminescence
Activity calls are given as the source filed them. No rule for the calls is given here.
Readout Type: outcome

Worked cases, answers included:
Compound	outcome
CCc1c[nH]c2c(N(c3ccccc3)S(C)(=O)=O)cc(C(=O)N[C@@H](Cc3ccccc3)[C@H](O)CNCc3cccc(C(F)(F)F)c3)cc12	inactive
CNC(=O)NC1=NC(C)(C)N(OCCCOc2cc(Cl)c(Cl)cc2Cl)C(N)=N1	inactive
COc1ccc(-c2cccc(NC(=O)c3cccc(C#N)c3)c2)cc1CNC(C)C	inactive
CCC1N=C(N)N=C(N)N1OCCCOc1c(Cl)cc(Cl)cc1Cl (centres undefined)	inactive

[in] Could you share what outcome was measured for NC(N)=NN=Cc1c2ccccc2c(Cl)c2ccc(Cl)cc12 , tested on Protein kinase 7 (PK7), Plasmodium falciparum 3D7 (PF3D7_0213400)?
[out] inactive

[in] Entry c1cc(CNC2Cc3ccccc3C2)cc(-c2cnc(N3CCNCC3)nc2)c1 , system Protein kinase 7 (PK7), Plasmodium falciparum 3D7 (PF3D7_0213400): what outcome was measured?
[out] inactive

[in] Checklist item: outcome tested on Protein kinase 7 (PK7), Plasmodium falciparum 3D7 (PF3D7_0213400), entry CCNc1cc(C(=O)N[C@@H](Cc2ccccc2)[C@H](O)CNC2C3CC4CC(C3)CC2C4)cc(N2CCCCS2(=O)=O)c1 (some centres undefined) , value?
[out] inactive

[in] Request: outcome, test system Protein kinase 7 (PK7), Plasmodium falciparum 3D7 (PF3D7_0213400), entry COc1ccc(NC(=O)Nc2ccc(-c3ccc(-c4nc5ccccc5[nH]4)cc3)cc2)cc1
[out] inactive

[in] Which outcome is reported with Protein kinase 7 (PK7), Plasmodium falciparum 3D7 (PF3D7_0213400) for this entry: CCCn1c(SCC(=O)Nc2cc(C(F)(F)F)ccc2Cl)n[nH]c1=O ?
[out] inactive

###

Parameter: growth inhibition. Scope: all listed entries.
# Protocol Details: antimalarial activity against Dd2 strain (AID 2302);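 note: 0% = DMSO untreated growth and 100% = chloroquine plus artemisinin killed control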
# Condition Summary: P. falciparum Dd2 in RBCs, LDH growth readout, 72 h; at 2 µM; stronger effect = higher value
Hi! Could you send only the number? It should be in %, unit omitted.

Use these answered entries as a reference point.
Compound	Endpoint Unit	growth inhibition
CCn1c(-c2nonc2N)nc2c(Cl)ncc(O[C@H](CCN)c3ccccc3F)c21	%	88
Cn1cc(C2CCN(CCCCNC(=O)c3sc(-c4ccc(C(F)(F)F)cc4)nc3CO)CC2)c2ccccc21	%	15
Cc1cccc(Nc2c(-c3cc(Br)ccc3O)nc3ncccn23)c1	%	98
N#Cc1ccc(-c2ccc(C(=O)NC3CCN(CCN4CCC(c5cn(CCOC6CCCCO6)c6ccccc56)CC4)CC3)cc2)cc1 (stereo not given)	%	86

Next:
[in] Suppose we examine the compound Cc1cc(Nc2ccncc2)n2nc(C)c(-c3ccc(Cl)cc3)c2n1 ; what growth inhibition value has been reported?
[out] 99

###

# Lookup of reported inhibition keyed by entry
# Target Entity: L-lactate dehydrogenase (Plasmodium falciparum (isolate CDC / Honduras))
# Protocol Details: PfLDH activity inhibition – cell lysate, 3D7 strain, counter-screen for P. falciparum growth inhibition project (AID 2304);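 note: 0% = vehicle and 100% = reference inhibitor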
# Condition Summary: P. falciparum 3D7 crude extract, LDH APAD/NBT absorbance; at 2 µM; stronger effect = higher value
Answer in %, number only, no unit symbol.

Worked cases, answers included:
Compound	Endpoint Unit	inhibition
COC[C@H]1CCCN1Cc1ccc(-c2ccc(-c3nc4ccccc4[nH]3)s2)cc1	%	-2
COc1ccc(C=NNc2cc(C)nc3ccccc23)c(OC)c1	%	-2
COC(=O)c1c(NC(=O)c2cccc(C(F)(F)F)c2)sc2c1CCN(Cc1ccccc1)C2	%	0
O=C(Nc1ccc(N2CCCCC2)c(Cl)c1)c1ncn[nH]1	%	-6

[in] Under L-lactate dehydrogenase (Plasmodium falciparum (isolate CDC / Honduras)): inhibition value of Cc1cc(CN2CCC(N3CC(c4ccccc4)(c4ccccc4)OC3=O)C2)ccc1O (stereo not given) ?
[out] 1

###

# Protocol Details: inhibition of 3D7 malaria parasite growth – strain 3D7 (AID 2306);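 note: 0% = DMSO wells and 100% = chloroquine plus artemisinin control wells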
# Condition Summary: P. falciparum 3D7 erythrocytic growth, LDH absorbance, 72 h; at 2 µM; stronger effect = higher value
Readout Type: growth inhibition (%)
# number only, unit % dropped from output

Compound	Recorded Number
Cc1cc(N[C@@H](Cc2ccccc2)C(=O)NCc2cccc(F)c2)nc(NCCOc2ccccc2)n1	97
Cc1[nH]c(C)c(C(F)(F)F)c(=O)c1-c1ccc(Oc2ccc(OC(F)(F)F)cc2)cc1	97
COc1ccc2nccc([C@@H](O)CN3CC[C@H](NCc4ccc5c(n4)NC(=O)CS5)[C@H](F)C3)c2c1	89
Cn1nc(-c2ccc(NC(=O)Nc3cc(C(F)(F)F)cc(C(F)(F)F)c3)c(F)c2)c2cnc(NCCN3CCOCC3)nc21	94
Clc1ccc(CNC2CCN(CC3CCCCC3)CC2)cc1	92
Cc1ccc(C)c2c1[nH]c1ccc(C3=NCCN3)cc12	100
C/C=C/C=C/C1=NCCc2cc(OCCC)ccc21	87
CCc1c(C)c2ccc3c(c2oc1=O)CN(CCc1ccc(F)cc1)CO3	94

[in] What growth inhibition value was documented for this compound, Fc1ccccc1CNc1ncc(-c2ccsc2)c(-c2nccs2)n1 ?
[out] 86

[in] For CCC(C(=O)Nc1ccccc1)n1nc(-c2ccc(C)c(S(=O)(=O)N3CCCCC3)c2)ccc1=O (configuration not stated) , what is its reported growth inhibition?
[out] 85

[in] Fill in the blank: the reported growth inhibition of Cc1cc(-c2cnc(N)c(-c3ccc(N4CCN(C)CC4)nc3)c2)cc(C)c1O is ____.
[out] 91

[in] Would you kindly share the measured growth inhibition for O=C(/C=C/c1ccc(Cl)cc1Cl)N1CCC(CCN2CCC(c3c[nH]c4ccccc34)CC2)CC1 ?
[out] 98

[in] Please report the recorded growth inhibition for COc1cc2nc(N3CCC(CNC(=O)c4ccc(NC(=O)c5ccc(Cl)cc5)cc4)CC3)nc(N)c2cc1OC .
[out] 101

[in] Query: growth inhibition; subject: O=C(/C=C/c1ccc(Cl)c(Cl)c1)NCC1CCN(Cc2ccc(O)cc2)CC1
[out] 98

[in] Consider the compound CCn1cc(-c2cc(C(=O)Nc3ccc(OC)cc3C)c3ccccc3n2)c(C)n1 and give its measured growth inhibition.
[out] 97

[in] Report growth inhibition for O=C1COC(c2ccccc2)(c2ccccc2)CN1CC1CCN(Cc2ccc(O)cc2Cl)C1 (configuration not stated) please.
[out] 85

[in] Quick one: growth inhibition for COc1cc2c(c(Cl)c1OC)CCN(Cc1ccccc1)CC2c1ccc(C(N)=O)cc1 (configuration not stated) ?
[out] 97

[in] Which growth inhibition value belongs to COc1cccc(NC(=O)NC2CCN(c3ccnc(Nc4cc(OC)c(OC)c(OC)c4)n3)C2)c1 (configuration not stated) ?
[out] 95

[in] Looking for the measured growth inhibition of N#Cc1ccc2c(c1)CCN(CCC1CCC(NC(=O)c3cc4ccc(Br)cc4[nH]3)CC1)C2 (configuration not stated) , can you help?
[out] 103

[in] Quick one: growth inhibition of CN1CCCN(Cc2ccc(-c3cccc(NC(=O)c4cccc(Cl)c4)c3)cc2)CC1 ?
[out] 100

[in] Record request: growth inhibition value, item O=C(NCCCCN1CCN(c2cccc3ccccc23)CC1)c1ccc(NC(=O)c2ccc(Cl)cc2)cc1
[out] 101

[in] Request the reported growth inhibition associated with O=S(=O)(NCCN1CCCC1)c1ccc(-c2cccc(CNC3Cc4ccccc4C3)c2)cc1F
[out] 98

[in] Fill in the blank: the reported growth inhibition of C[C@@H](NCCc1cccc(Cl)c1)[C@@H](O)c1ccc(OCCCCCCOc2ccc([C@H](O)[C@@H](C)NCCc3cccc(Cl)c3)cc2)cc1 is ____.
[out] 100

[in] So what's the measured growth inhibition for this one? CCN(CC)CCN(Cc1ccc(-c2ccc(C(F)(F)F)cc2)cc1)C(=O)Cn1c(CCc2ccc(F)c(F)c2F)nc(=O)c2ccccc21
[out] 97

[in] For the compound O=C1C(=Cc2cc(Cc3ccccc3)ccc2O)SC(=S)N1Cc1ccccc1 , what growth inhibition is on record?
[out] 98
